target: hGLP-1R (Homo sapiens, UniProt P43220); experiment: cell-based or functional assay
*1 amine or outer side, *2 acyl side, *3 side chain or, on linkers, in order; H or OH if unused. Where no end group is shown, it is not given here. Side-chain parts run from the residue outwards. [ ]: non-standard residue; d: D form. The star is where a group is joined. αMePhe(2-F) = C[C@](N)(Cc1ccccc1F)C(=O)O; γGlu = O=C(O)[C@H](CCC(=O)[*:2])N[*:1]; C14 diacid = O=C(O)CCCCCCCCCCCCC(=O)*; αMeY = C[C@](N)(Cc1ccc(O)cc1)C(=O)O; αMeL = CC(C)C[C@](C)(N)C(=O)O; Orn = NCCC[C@H](N)C(=O)O; AEEA = NCCOCCOCC(=O)O; Aib = CC(C)(N)C(=O)O
measured-metric: cAMP EC50
Could you write the number and then its unit?

{"columns": ["binder", "obs-value"],
 "data": [
  ["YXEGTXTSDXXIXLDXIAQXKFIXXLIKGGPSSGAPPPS (Y-Aib-EGT-αMeF(2F)-TSD-4Pal-Aib-I-αMeL-LD-Orn-IAQ-Aib-K((2-[2-(2-Amino-ethoxy)-ethoxy]-acetyl)-(γ-Glu)-CO-(CH2)12-CO2H)FI-(D-Glu)-αMeY-LIK((2-[2-(2-Amino-ethoxy)-ethoxy]-acetyl)-(γ-Glu)-CO-(CH2)12-CO2H)GGPSSGAPPPS-NH2) [Example 340]", "409 pM"],
  ["Y[Aib]EGT[αMePhe(2-F)]TSDV[Aib]I[αMeL]LD[Orn]K([AEEA-AEEA-γGlu-C14 diacid])AQ[Aib][Orn]FI[dE][αMeY]LIK([AEEA-AEEA-γGlu-C14 diacid])GGPSSGAPPPS-NH2 [Example 350]", "202 pM"],
  ["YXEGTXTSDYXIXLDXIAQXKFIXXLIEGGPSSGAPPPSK (Y-Aib-EGT-αMeF(2F)-TSDY-Aib-I-αMeL-LD-Orn-IAQ-Aib-K((2-[2-(2-Amino-ethoxy)-ethoxy]-acetyl)-(γ-Glu)-(10-(4-carboxyphenoxy)decanoyl))FI-(D-Glu)-αMeY-LIEGGPSSGAPPPSK((2-[2-(2-Amino-ethoxy)-ethoxy]-acetyl)-(γ-Glu)-(10-(4-carboxyphenoxy)decanoyl))-NH2) [Example 377]", "356 pM"],
  ["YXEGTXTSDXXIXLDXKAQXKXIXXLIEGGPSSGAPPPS (not fully specified; Y-Aib-EGT-αMeF(2F)-TSD-4Pal-Aib-I-αMeL-LD-Orn-K((2-[2-(2-Amino-ethoxy)-ethoxy]-acetyl)2-(γ Glu)-CO-(CH2)10H3)AQ-Aib-K((2-[2-(2-Amino-ethoxy)-ethoxy]-acetyl)2-(γGlu)-CO-(CH2)10C3)-αMeFI-(D-Glu)-αMeY-LIEGGPSSGAPPPS-NH2) [Example 430]", "342 pM"],
  ["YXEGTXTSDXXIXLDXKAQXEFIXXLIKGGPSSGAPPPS (Y-Aib-EGT-αMeF(2F)-TSD-4Pal-Aib-I-αMeL-LD-Orn-K((2-[2-(2-Amino-ethoxy)-ethoxy]-acetyl)2-CO-(CH2)12-CO2H)AQ-Aib-EFI-(D-Glu)-αMeY-LIK((2-[2-(2-Amino-ethoxy)-ethoxy]-acetyl)2-CO-(CH2)12-CO2H)GGPSSGAPPPS-NH2) [Example 387]", "320 pM"],
  ["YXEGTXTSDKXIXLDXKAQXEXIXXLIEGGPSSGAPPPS (Y-Aib-EGT-αMeF(2F)-TSDK((2-[2-(2-Amino-ethoxy)-ethoxy]-acetyl)3-(γ-Glu)-CO-(CH2)10-CH3)-Aib-I-αMeL-LD-Orn-K((2-[2-(2-Amino-ethoxy)-ethoxy]-acetyl)3-(γ-Glu)-CO-(CH2)10-CH3)AQ-Aib-E-αMeF-I-(D-Glu)-αMeY-LIEGGPSSGAPPPS-NH2) [Example 436]", "102 pM"]
]}

[Q] Supply measured cAMP EC50 of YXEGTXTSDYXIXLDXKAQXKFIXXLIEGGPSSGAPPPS (Y-Aib-EGT-αMeF(2F)-TSDY-Aib-I-αMeL-LD-Orn-K((2-[2-(2-Amino-ethoxy)-ethoxy]-acetyl)2-(10-(4-carboxyphenoxy)decanoyl))AQ-Aib-K((2-[2-(2-Amino-ethoxy)-ethoxy]-acetyl)2-(10-(4-carboxyphenoxy)decanoyl))FI-(D-Glu)-αMeY-LIEGGPSSGAPPPS-NH2) [Example 393] in your reply.
[A] 372 pM

[Q] Supply measured cAMP EC50 of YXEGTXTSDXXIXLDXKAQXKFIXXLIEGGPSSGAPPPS (Y-Aib-EGT-αMeF(2F)-TSD-4Pal-Aib-I-αMeL-LD-Orn-K((2-[2-(2-Amino-ethoxy)-ethoxy]-acetyl)-(γ-Glu)-CO-(CH2)10-CH3)AQ-Aib-K((2-[2-(2-Amino-ethoxy)-ethoxy]-acetyl)-(γ-Glu)-CO-(CH2)10-CH3)FI-(D-Glu)-αMeY-LIEGGPSSGAPPPS-NH2) [Example 426] in your reply.
[A] 206 pM

[Q] Supply measured cAMP EC50 of YXEGTXTSDXSIXLDXKAQXXFIXXLIKGGPSSGAPPPS (Y-Aib-EGT-αMeF(2F)-TSD-4Pal-SI-αMeL-LD-Orn-K((2-[2-(2-Amino-ethoxy)-ethoxy]-acetyl)2-(γ-Glu)-CO-(CH2)10-CH3)AQ-Aib-Orn-FI-(D-Glu)-αMeY-LIK((2-[2-(2-Amino-ethoxy)-ethoxy]-acetyl)2-(γ-Glu)-CO-(CH2)10-CH3)GGPSSGAPPPS-NH2) [Example 299] in your reply.
[A] 126 pM

[Q] Supply measured cAMP EC50 of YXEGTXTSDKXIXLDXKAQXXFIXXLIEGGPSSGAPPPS (Y-Aib-EGT-αMeF(2F)-TSDK((2-[2-(2-Amino-ethoxy)-ethoxy]-acetyl)3-(γ-Glu)-CO-(CH2)10-CH3)-Aib-I-αMeL-LD-Orn-K((2-[2-(2-Amino-ethoxy)-ethoxy]-acetyl)3-(γ-Glu)-CO-(CH2)10-CH3)AQ-Aib-Orn-FI-(D-Glu)-αMeY-LIEGGPSSGAPPPS-NH2) [Example 432] in your reply.
[A] 54.9 pM

[Q] Supply measured cAMP EC50 of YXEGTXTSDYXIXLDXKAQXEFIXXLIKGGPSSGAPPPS (Y-Aib-EGT-αMeF(2F)-TSDY-Aib-I-αMeL-LD-Orn-K((2-[2-(2-Amino-ethoxy)-ethoxy]-acetyl)2-CO-(CH2)12-CO2H)AQ-Aib-EFI-(D-Glu)-αMeY-LIK((2-[2-(2-Amino-ethoxy)-ethoxy]-acetyl)2-CO-(CH2)12-CO2H)GGPSSGAPPPS-NH2) [Example 388] in your reply.
[A] 292 pM

[Q] Supply measured cAMP EC50 of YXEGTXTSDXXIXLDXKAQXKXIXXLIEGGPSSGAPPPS (Y-Aib-EGT-αMeF(2F)-TSD-4Pal-Aib-I-αMeL-LD-Orn-K((2-[2-(2-Amino-ethoxy)-ethoxy]-acetyl)3-(γ-Glu)-CO-(CH2)10-CH3)AQ-Aib-K((2-[2-(2-Amino-ethoxy)-ethoxy]-acetyl)3-(γ-Glu)-CO-(CH2)10-CH3)-αMeF-I-(D-Glu)-αMeY-LIEGGPSSGAPPPS-NH2) [Example 437] in your reply.
[A] 249 pM
